Numbers sourced from ChEMBL document CHEMBL4373695.

- STUDY SYSTEM: Epidermal growth factor receptor (Homo sapiens, UniProt P00533, C797S/L858R/T790M)
- Sequence (P00533 25-1210 T790M/C797S/L858R limits assumed): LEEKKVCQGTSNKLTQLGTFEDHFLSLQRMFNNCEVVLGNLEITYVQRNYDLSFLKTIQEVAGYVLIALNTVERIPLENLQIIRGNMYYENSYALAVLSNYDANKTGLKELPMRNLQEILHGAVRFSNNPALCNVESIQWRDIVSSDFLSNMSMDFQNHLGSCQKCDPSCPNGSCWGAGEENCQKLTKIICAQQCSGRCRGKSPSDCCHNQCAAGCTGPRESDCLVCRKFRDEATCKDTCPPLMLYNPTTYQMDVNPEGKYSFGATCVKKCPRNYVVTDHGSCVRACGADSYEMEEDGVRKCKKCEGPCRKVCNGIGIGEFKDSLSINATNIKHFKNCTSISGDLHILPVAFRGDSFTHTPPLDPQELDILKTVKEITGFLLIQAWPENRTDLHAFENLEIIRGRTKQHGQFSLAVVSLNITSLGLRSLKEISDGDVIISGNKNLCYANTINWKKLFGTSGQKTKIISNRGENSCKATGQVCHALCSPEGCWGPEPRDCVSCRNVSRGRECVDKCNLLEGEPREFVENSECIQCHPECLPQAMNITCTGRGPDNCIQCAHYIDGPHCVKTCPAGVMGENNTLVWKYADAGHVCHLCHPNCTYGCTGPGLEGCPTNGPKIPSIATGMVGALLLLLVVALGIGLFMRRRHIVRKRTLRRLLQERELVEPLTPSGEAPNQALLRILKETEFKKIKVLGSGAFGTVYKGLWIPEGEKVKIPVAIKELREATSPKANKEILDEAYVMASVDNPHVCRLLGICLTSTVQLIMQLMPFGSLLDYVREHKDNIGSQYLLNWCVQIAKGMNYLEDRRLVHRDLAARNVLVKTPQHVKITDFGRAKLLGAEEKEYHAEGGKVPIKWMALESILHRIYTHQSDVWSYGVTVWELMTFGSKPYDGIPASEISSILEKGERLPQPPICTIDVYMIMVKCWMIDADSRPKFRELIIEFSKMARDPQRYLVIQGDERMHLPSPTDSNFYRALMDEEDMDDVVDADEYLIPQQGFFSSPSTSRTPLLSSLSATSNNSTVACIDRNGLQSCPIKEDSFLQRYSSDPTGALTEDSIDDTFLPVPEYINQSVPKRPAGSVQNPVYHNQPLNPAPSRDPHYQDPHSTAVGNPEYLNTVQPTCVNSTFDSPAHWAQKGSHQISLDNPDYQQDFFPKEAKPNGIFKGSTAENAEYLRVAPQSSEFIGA
- MEASUREMENT PROTOCOL: Inhibition of human C-terminal His-tagged and N-terminal GST-tagged EGFR L858R/T790M/C797S triple mutant ( 668 to 1210 amino acids) expressed in baculovirus infected Sf9 insect cells using Poly(Glu,Tyr) 4:1 as substrate after 60 mins by ELISA
MEASURED METRIC: pIC50
// field semantics: pIC50 = negative decimal log of concentration (mol/L)

Examples with their reported pIC50 follow.
| COMPOUND | STUDY SYSTEM | pIC50 |
| --- | --- | --- |
| CCC(=O)N1CCC[C@@H](n2c(=O)c(-c3ccc(F)cc3Cl)c(C)c3cnc(Nc4ccc(N5CCN(C)CC5)c(C)c4)nc32)C1 (stereo in doubt; 8q-B) | Epidermal growth factor receptor (Homo sapiens, UniProt P00533, C797S/L858R/T790M) | 7.05 |
| CCC(=O)N1CCC[C@@H](n2c(=O)c(-c3ccccc3Cl)c(C)c3cnc(Nc4ccc(N5CCN(C)CC5)c(C)c4)nc32)C1 (stereo in doubt; 8f-B) | Epidermal growth factor receptor (Homo sapiens, UniProt P00533, C797S/L858R/T790M) | 7.19 |

// below: pIC50 requested for another compound
Record request: pIC50 value, item CCC(=O)N1CC[C@@H](n2c(=O)c(-c3ccccc3Cl)c(C)c3cnc(Nc4ccc(N5CCN(C)CC5)c(C)c4)nc32)C1 (stereo in doubt; 8g-B)
7.09
